molecular target: human PAH with the R408W mutation (Homo sapiens, UniProt P00439, R408W); construct: expressed in transfected cells; experiment: Cell Based Phenylalanine Flux Assay; conditions: A375 cells expressing human R408W PAH; 24 hrs with compound; 13C-Tyrosine by LC-MS; average where tested multiple times; read-out: AC50
Sequence (P00439 whole entry R408W): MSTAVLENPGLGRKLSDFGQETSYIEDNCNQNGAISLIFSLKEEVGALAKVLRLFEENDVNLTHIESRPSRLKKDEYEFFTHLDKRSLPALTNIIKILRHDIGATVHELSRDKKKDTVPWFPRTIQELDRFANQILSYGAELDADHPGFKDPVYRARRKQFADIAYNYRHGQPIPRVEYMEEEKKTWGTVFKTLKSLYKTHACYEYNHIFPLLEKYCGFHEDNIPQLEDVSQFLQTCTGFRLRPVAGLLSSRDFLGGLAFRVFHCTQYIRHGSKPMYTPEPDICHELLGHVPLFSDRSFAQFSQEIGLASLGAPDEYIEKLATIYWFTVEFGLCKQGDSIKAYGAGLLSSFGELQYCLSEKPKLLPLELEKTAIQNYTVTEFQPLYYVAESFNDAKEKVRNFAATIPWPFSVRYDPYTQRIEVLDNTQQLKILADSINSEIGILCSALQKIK
Measurement type: AC50

O=C(c1cnn2cc(Cl)ccc12)N1CCc2[nH]cnc2C1c1nc2ccc(F)cc2s1 (stereo not drawn) = > 5 µM

The compound identified as CN(C)Cc1nc(C#N)c(C(=O)N2CCc3[nH]cnc3C2c2nc3ccccc3s2)o1 (stereo not drawn) registered its AC50 at 1 to 5 µM

The compound identified as Cc1nnc(CC(=O)N2CCc3[nH]cnc3[C@@H]2c2nc3c(F)cccc3s2)s1 (single isomer, unassigned) registered its AC50 at > 5 µM

The compound identified as O=C(c1cnn2ccc(Cl)cc12)N1CCc2[nH]cnc2C1c1nc2ccc(Cl)cc2[nH]1 (stereo not drawn) registered its AC50 at > 5 µM

The compound identified as Cn1nc(-c2ccccn2)cc1C(=O)N1CCc2[nH]cnc2C1c1nc2c(F)cccc2s1 (stereo not drawn) registered its AC50 at > 5 µM

The compound identified as O=C(C1CC1)N1CCc2[nH]cnc2C1c1nc2cc(F)ccc2s1 (stereo not drawn) registered its AC50 at 1 to 5 µM

The compound identified as CC1CN(C(=O)c2cnc(N3CCOCC3)o2)C(c2nc3ccccc3s2)c2nc[nH]c21 (stereo not drawn) registered its AC50 at > 5 µM

The compound identified as O=C(c1cnn2cc(CO)ccc12)N1CCc2[nH]cnc2C1c1nc2ccccc2s1 (stereo not drawn) registered its AC50 at > 5 µM

The compound identified as Cc1nnc(CC(=O)N2CCc3[nH]cnc3[C@H]2c2nc3ccccc3[nH]2)o1 (single isomer, unassigned) registered its AC50 at > 5 µM
